target: HLA-A*11:01; experiment: IEDB peptide-MHC binding, purified MHC/direct/fluorescence; filed as Kd, often an IC50 or EC50 that approximates it; bounds were set here for any values at or beyond the usual limits of such assays; details: source organism: Pasteurella multocida
pKd: −log10 of the molar value.
Measured attribute: pKd

Can you share its pKd? I mean this sequence: LLKDLMPFV
≤ 4.70

----------
molecular target: HLA-B*15:01; assay: IEDB peptide-MHC binding, purified MHC/direct/fluorescence; filed as Kd, often an IC50 or EC50 that approximates it; bounds were set here for any values at or beyond the usual limits of such assays; settings: source organism: Rickettsia prowazekii
Measured attribute: pKd
// pKd here means minus log10 of the molar concentration (mol/L)

Name the reported pKd value associated with the sequence KIFEYGFTF
6.64

----------
biological target: HLA-B*15:42; test: IEDB peptide-MHC binding, purified MHC/competitive/fluorescence; filed as Kd, often an IC50 or EC50 that approximates it; bounds were set here for any values at or beyond the usual limits of such assays; settings: source organism: Yellow fever virus 1899/81
pKd: −log10 of the molar value.
Measured attribute: pKd

Query (sequence): HEVNGTWMI ; field requested: pKd
≤ 5.30

----------
target: HLA-B*46:01; assay: IEDB peptide-MHC binding, purified MHC/competitive/fluorescence; filed as Kd, often an IC50 or EC50 that approximates it; bounds were set here for any values at or beyond the usual limits of such assays; conditions: source organism: Vibrio vulnificus CMCP6
pKd: −log10 of the molar value.
Measured attribute: pKd

Query: pKd; subject: FGAQMGWPV
≤ 4.70

----------
biological target: HLA-A*03:01; experiment: IEDB peptide-MHC binding, purified MHC/direct/fluorescence; filed as Kd, often an IC50 or EC50 that approximates it; bounds were set here for any values at or beyond the usual limits of such assays; details: source organism: Giardia lamblia ATCC 50803
Measured attribute: Kd

Example sequences with recorded Kd:
HCIDKTPGL	≥ 20 µM
QPWTPVSSF	≥ 20 µM
CYPRLWGVR	≥ 20 µM
EFDNYRGTI	≥ 20 µM

Then this sequence:
Lab note: need Kd for KLADMSIYC on HLA-A*03:01, anyone have it?
4.2 µM

----------
target: HLA-B*46:01; experiment: IEDB peptide-MHC binding, purified MHC/direct/fluorescence; filed as Kd, often an IC50 or EC50 that approximates it; bounds were set here for any values at or beyond the usual limits of such assays; conditions: source organism: Camelpox virus M-96
Measured attribute: Kd

// returns reported Kd for input ETIEILRNY
≥ 20 µM

----------
molecular target: HLA-B*07:02; test: IEDB peptide-MHC binding, purified MHC/direct/fluorescence; filed as Kd, often an IC50 or EC50 that approximates it; bounds were set here for any values at or beyond the usual limits of such assays; settings: source organism: Hepatovirus A
Measured attribute: Kd

For YMYAVSGAL , what is its reported Kd?
≥ 20 µM

----------
biological target: HLA-A*31:01; test: IEDB peptide-MHC binding, purified MHC/competitive/radioactivity; filed as Kd, often an IC50 or EC50 that approximates it; bounds were set here for any values at or beyond the usual limits of such assays; details: source organism: SARS coronavirus Tor2
Some sequences, each annotated with its measured Kd.
Form entry: enter the amount, then its unit.

Look up Kd: VFAQVKQMYK
0.124 µM

What measured Kd goes with VVENPTIQK ?
18.7 µM

State the recorded Kd for this entry: SVLNDILSR
1.14 µM

Given the sequence CAAYYFMKFR , what is its reported Kd?
0.0109 µM

State the recorded Kd for this entry: GVVFLHVTY
15.3 µM

Fill in the blank: the reported Kd of ASAFFGMSR is ____.
0.0219 µM

----------
The sequences listed here are annotated with their pKd.
target: HLA-A*30:02; assay: IEDB peptide-MHC binding, purified MHC/competitive/radioactivity; filed as Kd, often an IC50 or EC50 that approximates it; bounds were set here for any values at or beyond the usual limits of such assays; conditions: source organism: Lymphocytic choriomeningitis virus (strain Armstrong)
// field semantics: pKd = negative decimal log of concentration (mol/L)

KCWLVTNGSY	7.56

# pKd lookup, item LIFRGPNVV
5.00

----------
target: HLA-A*24:03; experiment: IEDB peptide-MHC binding, purified MHC/direct/fluorescence; filed as Kd, often an IC50 or EC50 that approximates it; bounds were set here for any values at or beyond the usual limits of such assays; details: source organism: Pasteurella multocida
Measured attribute: Kd

Sample LLKDLMPFV — what was its Kd?
≥ 20 µM

----------
target: HLA-B*08:01; experiment: IEDB peptide-MHC binding, purified MHC/competitive/radioactivity; filed as Kd, often an IC50 or EC50 that approximates it; bounds were set here for any values at or beyond the usual limits of such assays; conditions: source organism: Dengue virus 1 Brazil/97-11/1997
Measured attribute: log10 of Kd (log10 of the value in nM)
Values are log10 of Kd in nM.

RLKMDKLTL	2.43
MLLNRFTMA	1.01
LGLNSRSTSL	1.60

What reported log10 of Kd corresponds to NPLTLTAAVL on HLA-B*08:01?
2.48

Quick check: log10 of Kd on HLA-B*08:01, item MLMTGTLAV ?
1.35

Give log10 of Kd (HLA-B*08:01) of the following sequence: KKKQRSGVL
3.36

----------
biological target: HLA-B*51:01; assay: IEDB peptide-MHC binding, purified MHC/competitive/fluorescence; filed as Kd, often an IC50 or EC50 that approximates it; bounds were set here for any values at or beyond the usual limits of such assays; conditions: source organism: West Nile virus
Measured attribute: Kd

# lookup: Kd of LAVSAYTPW
≥ 20 µM

----------
biological target: HLA-A*31:01; assay: IEDB peptide-MHC binding, purified MHC/competitive/fluorescence; filed as Kd, often an IC50 or EC50 that approximates it; bounds were set here for any values at or beyond the usual limits of such assays; conditions: source organism: Influenza A virus H3N2
Measured attribute: Kd (nM)
# number only, unit nM dropped from output

# query: Kd | item KYTSGRQEK | system: HLA-A*31:01
268

----------
target: HLA-A*02:11; assay: IEDB peptide-MHC binding, purified MHC/competitive/fluorescence; filed as Kd, often an IC50 or EC50 that approximates it; bounds were set here for any values at or beyond the usual limits of such assays; conditions: source organism: Human immunodeficiency virus 1
Measured attribute: pKd
Entry type: numeric. Quantity: pKd, the -log10 of concentration in molar units.

// lookup pKd for HLADQLIHQ
7.00

----------
target: HLA-B*57:01; assay: IEDB peptide-MHC binding, purified MHC/direct/fluorescence; filed as Kd, often an IC50 or EC50 that approximates it; bounds were set here for any values at or beyond the usual limits of such assays; settings: source organism: Coxiella burnetii
Measured attribute: Kd

Recorded Kd of VFFKQWFEK , please.
≥ 20 µM

----------
target: HLA-B*08:01; experiment: IEDB peptide-MHC binding, purified MHC/competitive/fluorescence; filed as Kd, often an IC50 or EC50 that approximates it; bounds were set here for any values at or beyond the usual limits of such assays; settings: source organism: Vibrio cholerae O1 biovar El Tor str. N16961
Measured attribute: Kd (µM)
Respond numerically; units are µM and should not be typed.

So what's the measured Kd for this one? YLKKGRLSL
0.0532

----------
biological target: HLA-A*11:01; test: IEDB peptide-MHC binding, purified MHC/direct/fluorescence; filed as Kd, often an IC50 or EC50 that approximates it; bounds were set here for any values at or beyond the usual limits of such assays; conditions: source organism: Vibrio cholerae
Listing of recorded Kd by entry.

RYDYANLCQ	≥ 20 µM

Please look at the following sequence next.
Find the recorded Kd belonging to YLKKGRLSL and report it.
≥ 20 µM

----------
biological target: HLA-A*26:01; assay: IEDB peptide-MHC binding, purified MHC/competitive/fluorescence; filed as Kd, often an IC50 or EC50 that approximates it; bounds were set here for any values at or beyond the usual limits of such assays; conditions: source organism: Mammarenavirus lassaense
Measured attribute: pKd
Hey, just a heads up that pKd is the negative log base 10 of the concentration in molar.

Item DVADLFPAQ with HLA-A*26:01 - pKd?
5.75

----------
target: HLA-C*14:02; assay: IEDB peptide-MHC binding, purified MHC/competitive/fluorescence; filed as Kd, often an IC50 or EC50 that approximates it; bounds were set here for any values at or beyond the usual limits of such assays; conditions: source organism: Salmonella enterica subsp. enterica serovar Typhi
Measured attribute: pKd
FYI, pKd means -log10 of a concentration in mol per litre.

For the sequence shown here, YLRNAGAAM , give the reported pKd.
8.44

----------
target: HLA-B*08:01; experiment: IEDB peptide-MHC binding, purified MHC/competitive/radioactivity; filed as Kd, often an IC50 or EC50 that approximates it; bounds were set here for any values at or beyond the usual limits of such assays; settings: source organism: Dengue virus 2 Peru/IQT2913/1996
Measured attribute: pKd
Interpret pKd as the negative base-10 log of the concentration measured in mol/L.

Data request, read-out pKd, for KWKNRLNAL
6.80
